Source listed as ChEMBL document CHEMBL1201862.

System: NCI-H226
Experiment: NCI tumour cell line growth inhibition, 48 h
Calls of active or inactive are those of the source. No stated cut-off is given here; in the data, active = GI50 up to about 1.1 µM and inactive = higher.
VALUE_TYPE: GI50

* COc1ccc(COCCOCc2nc(C#N)c(N)o2)cc1 | > 100 µM (inactive)

Which GI50 reading was recorded for the compound Cc1ccc(N2CCN(CCC(=O)O)CC2)cc1 ?
> 100 µM (inactive)

What does the record list as GI50 for Cn1c2ccccc2c(=S)c2cc(NC(=O)CCCCC(=O)Nc3ccc4c(c3)c(=S)c3ccccc3n4C)ccc21 ?
> 100 µM (inactive)

GI50 for N=C(N)NNC(=O)C(=O)O ?
> 100 µM (inactive)

Field request: GI50 | item: Nc1nc(Sc2ccc([N+](=O)[O-])cn2)c2nc[nH]c2n1
12.6 µM (inactive)

// returns reported GI50 for input O=C(CC1(O)C(=O)Nc2ccccc21)c1ccc(Cl)cc1Cl (stereo not given)
71.6 µM (inactive)
